System: Dkk-1
Assay: Inhibition of expression of hair follicle catagen factor (Dkk-1 ELISA)
Format: cell-based
Conditions: 2 ppm, 24 hours, human dermal papilla cells (hDPCs)
Procedure: The inhibition of the expression of the hair follicle catagen marker Dkk-1 was investigated using human dermal papilla cells (hDPCs). The human dermal papilla cells were purchased from PromoCell. The hDPCs were subcultured in an hDPC culture medium (follicle dermal papilla cell growth medium; PromoCell, Heidelberg, Germany) containing a medium additive (Supplement Mix; PromoCell, Heidelberg, Germany), 100 units/mL penicillin and […] streptomycin under the condition of 37° C. and 5% CO2. […]
Quick reference: Relative expression level of Dkk-1 (% of untreated group) of the listed items.

Field: example entries. Status: answers known.
COMPOUND	RESULT
CC1(C)CC[C@]2(C(=O)O)CC[C@]3(C)C(=CC[C@@H]4[C@@]5(C)CC[C@H](O[C@@H]6O[C@H](C(=O)O)[C@@H](O)[C@H](O)[C@H]6O)[C@@](C)(C=O)[C@@H]5CC[C@]43C)[C@@H]2C1 [Gypsogenin 3-O-β-D-glucuronopyranoside, gypsogenin 3-O-β-D-glucuronopyranoside]	96.5 % of untreated group
CC1(C)CC[C@]2(C(=O)O[C@@H]3O[C@H](CO)[C@@H](O)[C@H](O)[C@H]3O)CC[C@]3(C)C(=CC[C@@H]4[C@@]5(C)CC[C@H](O[C@@H]6O[C@H](C(=O)O)[C@@H](O)[C@H](O)[C@H]6O)C(C)(C)[C@@H]5CC[C@]43C)[C@@H]2C1	85.2 % of untreated group
CC1(C)CC[C@]2(C(=O)O[C@@H]3O[C@H](CO)[C@@H](O)[C@H](O)[C@H]3O)CC[C@]3(C)C(=CC[C@@H]4[C@@]5(C)CC[C@H](O[C@@H]6O[C@H](CO)[C@@H](O)[C@H](O[C@@H]7O[C@H](CO)[C@@H](O)[C@H](O[C@@H]8O[C@H](CO)[C@@H](O)[C@H](O)[C@H]8O)[C@H]7O)[C@H]6O[C@@H]6O[C@H](CO)[C@@H](O)[C@H](O)[C@H]6O)C(C)(C)[C@@H]5CC[C@]43C)[C@@H]2C1 [Congmunoside X, congmunoside X]	90.8 % of untreated group

Now consider a different compound.
Memo: C[C@@H]1O[C@@H](O[C@H]2[C@H](OC(=O)[C@]34CCC(C)(C)C[C@H]3C3=CC[C@@H]5[C@@]6(C)C[C@H](O)[C@H](O[C@@H]7O[C@H](CO)[C@@H](O)[C@H](O)[C@H]7O)C(CO)(CO)[C@@H]6CC[C@@]5(C)[C@]3(C)C[C@H]4O)OC[C@H](O)[C@@H]2O)[C@H](O)[C@H](O)[C@H]1O[C@@H]1OC[C@@H](O)[C@H](O)[C@H]1O , reported Relative expression level of Dkk-1 (% of untreated group): 86.4 % of untreated group

* * *

Quick reference: Androgenic activity (% of 1 nM DHT) of the listed items.
System: androgen receptor
Experiment: Androgenic activity: transcriptional activation (MMTV-Luc luciferase reporter) assay with 1 nM DHT
Assay type: cell-based, human
Details: 20 ppm together with 1 nM DHT; 24 hours

Field: example entries. Status: answers known.
COMPOUND	ASSAY SYSTEM	Androgenic activity (% of 1 nM DHT)
CC1(C)CC[C@]2(C(=O)O)CC[C@]3(C)C(=CC[C@@H]4[C@@]5(C)CC[C@H](O[C@@H]6O[C@H](C(=O)O)[C@@H](O)[C@H](O)[C@H]6O)[C@@](C)(C=O)[C@@H]5CC[C@]43C)[C@@H]2C1 [Gypsogenin 3-O-β-D-glucuronopyranoside, gypsogenin 3-O-β-D-glucuronopyranoside]	androgen receptor	−9.8 % of 1 nM DHT
CC1(C)CC[C@]2(C(=O)O[C@@H]3O[C@H](CO)[C@@H](O)[C@H](O)[C@H]3O)CC[C@]3(C)C(=CC[C@@H]4[C@@]5(C)CC[C@H](O[C@@H]6O[C@H](C(=O)O)[C@@H](O)[C@H](O)[C@H]6O)C(C)(C)[C@@H]5CC[C@]43C)[C@@H]2C1 [Chikusetsusaponin IVa, chikusetsusaponin IVa]	androgen receptor	77.5 % of 1 nM DHT

Memo: C[C@@H]1O[C@@H](O[C@H]2[C@H](OC(=O)[C@]34CCC(C)(C)C[C@H]3C3=CC[C@@H]5[C@@]6(C)C[C@H](O)[C@H](O[C@@H]7O[C@H](CO)[C@@H](O)[C@H](O)[C@H]7O)C(CO)(CO)[C@@H]6CC[C@@]5(C)[C@]3(C)C[C@H]4O)OC[C@H](O)[C@@H]2O)[C@H](O)[C@H](O)[C@H]1O[C@@H]1OC[C@@H](O)[C@H](O)[C@H]1O [Deapioplatycodin D, deapioplatycodin D] , reported Androgenic activity (% of 1 nM DHT): 34.9 % of 1 nM DHT

Memo: CC1(C)CC[C@]2(C(=O)O[C@@H]3O[C@H](CO)[C@@H](O)[C@H](O)[C@H]3O)CC[C@]3(C)C(=CC[C@@H]4[C@@]5(C)CC[C@H](O[C@@H]6O[C@H](CO)[C@@H](O)[C@H](O[C@@H]7O[C@H](CO)[C@@H](O)[C@H](O[C@@H]8O[C@H](CO)[C@@H](O)[C@H](O)[C@H]8O)[C@H]7O)[C@H]6O[C@@H]6O[C@H](CO)[C@@H](O)[C@H](O)[C@H]6O)C(C)(C)[C@@H]5CC[C@]43C)[C@@H]2C1 [Congmunoside X, congmunoside X] , reported Androgenic activity (% of 1 nM DHT): 85.9 % of 1 nM DHT

* * *

Tested on: androgen receptor
Assay: Androgenic activity: transcriptional activation (MMTV-Luc luciferase reporter) assay with 1 nM DHT
Format: cell-based, human
Conditions: 2 ppm together with 1 nM DHT; 24 hours
REPORTED ENDPOINT: Androgenic activity (% of 1 nM DHT)

Memo: CC1(C)CC[C@]2(C(=O)O)CC[C@]3(C)C(=CC[C@@H]4[C@@]5(C)CC[C@H](O[C@@H]6O[C@H](C(=O)O)[C@@H](O)[C@H](O)[C@H]6O)[C@@](C)(C=O)[C@@H]5CC[C@]43C)[C@@H]2C1 [Gypsogenin 3-O-β-D-glucuronopyranoside, gypsogenin 3-O-β-D-glucuronopyranoside] , reported Androgenic activity (% of 1 nM DHT): 79.1 % of 1 nM DHT

* * *

Quick reference: Androgenic activity (% of 1 nM DHT) of the listed items.
Test system: androgen receptor
Assay: Androgenic activity: transcriptional activation (MMTV-Luc luciferase reporter) assay with 1 nM DHT
Assay type: cell-based, human
Settings: 2 ppm together with 1 nM DHT; 24 hours

MOLECULE	Androgenic activity (% of 1 nM DHT)
CC1(C)CC[C@]2(C(=O)O[C@@H]3O[C@H](CO)[C@@H](O)[C@H](O)[C@H]3O)CC[C@]3(C)C(=CC[C@@H]4[C@@]5(C)CC[C@H](O[C@@H]6O[C@H](CO)[C@@H](O)[C@H](O[C@@H]7O[C@H](CO)[C@@H](O)[C@H](O[C@@H]8O[C@H](CO)[C@@H](O)[C@H](O)[C@H]8O)[C@H]7O)[C@H]6O[C@@H]6O[C@H](CO)[C@@H](O)[C@H](O)[C@H]6O)C(C)(C)[C@@H]5CC[C@]43C)[C@@H]2C1 [Congmunoside X, congmunoside X]	104.4 % of 1 nM DHT
CC1(C)CC[C@]2(C(=O)O[C@@H]3O[C@H](CO)[C@@H](O)[C@H](O)[C@H]3O)CC[C@]3(C)C(=CC[C@@H]4[C@@]5(C)CC[C@H](O[C@@H]6O[C@H](C(=O)O)[C@@H](O)[C@H](O)[C@H]6O)C(C)(C)[C@@H]5CC[C@]43C)[C@@H]2C1	79 % of 1 nM DHT

Now consider a different molecule.
Memo: C[C@@H]1O[C@@H](O[C@H]2[C@H](OC(=O)[C@]34CCC(C)(C)C[C@H]3C3=CC[C@@H]5[C@@]6(C)C[C@H](O)[C@H](O[C@@H]7O[C@H](CO)[C@@H](O)[C@H](O)[C@H]7O)C(CO)(CO)[C@@H]6CC[C@@]5(C)[C@]3(C)C[C@H]4O)OC[C@H](O)[C@@H]2O)[C@H](O)[C@H](O)[C@H]1O[C@@H]1OC[C@@H](O)[C@H](O)[C@H]1O , reported Androgenic activity (% of 1 nM DHT): 72.2 % of 1 nM DHT
